SYSTEM: CDK2 (Homo sapiens, UniProt P24941)
Construct: endogenous in cells; host or cells: MDA-MB-231
METHOD SUMMARY: CDK protein degradation activity (Western blotting), CDK2
Type: cell-based
CONDITION DETAILS: MDA-MB-231 cells, 1 μM, 16 hours, Western blot
Parameter: Enzyme degradation CDK2 (% remaining) @ 1 μM. Scope: all listed entries.
OUTCOME MEASURE: Enzyme degradation CDK2 (% remaining) @ 1 μM (%)

COMPOUND: Cc1cccc(C(=O)N[C@H]2C[C@@H](n3cnc4c(NCc5cccc(OCCCN6CCN(C(=O)COc7cccc8c7C(=O)N([C@H]7CCC(=O)NC7=O)C8=O)CC6)c5)ncnc43)C2)n1 [Compound 101]
UNIT DESCRIPTOR: %
REPORTED: 50

COMPOUND: O=C1CC[C@H](N2C(=O)c3cc(F)c(N4CCC(C(=O)N5CCC(CN6CCN(c7ccc(Nc8ncnc9c8ncn9C8CC(NC(=O)Cc9ccccc9)C8)cc7)CC6)CC5)CC4)cc3C2=O)C(=O)N1 (stereo partly drawn) [Compound 456]
UNIT DESCRIPTOR: %
REPORTED: 60

COMPOUND: Cc1cccc(C(=O)N[C@H]2C[C@@H](n3cnc4c(NC5CCN(CCC6CCN(C(=O)COc7ccc8c(c7)C(=O)N(C7CCC(=O)NC7=O)C8=O)CC6)CC5)ncnc43)C2)n1 (stereo partly drawn) [Compound 31]
UNIT DESCRIPTOR: %
REPORTED: 40
